# System: NCI-H226 lung
# assay explanation: NCI tumour cell line growth inhibition, 48 h
Consider the following molecules and their measured log10 TGI readings.
Answers are given as log10 of TGI in µM.

Use these answered entries as a reference point.
Query :: Entry under review: `Cc1c(C(=O)/C=C/c2c(Cl)cccc2Cl)c(=O)n(-c2ccccc2)n1C` . Reported log10 TGI?
Result :: 1.59

Query :: // returns reported log10 TGI for input `Cc1[nH]nc2ccc3nc(-c4ccc5[nH]ncc5c4)c4c(c3c12)CCCC4`
Result :: 1.03

Query :: Bench note: what log10 TGI did `N#C/C(=C1C=C/C(=N\O)C(Cl)=C\1)c1ccccc1` show?
Result :: 1.09

Query :: Which value of log10 TGI has been reported for `COc1ccc2c(c1)/C(=C\c1c(Cl)n(C)c3ccccc13)C(=O)N2` in the records?
Result :: 1.29

Query :: Recorded log10 TGI of `CSc1ccc(-c2cc(-c3nc4ccccc4[nH]3)nc(N)c2C#N)cc1` , please.
Result :: 1.90

---
Query :: Fill in: log10 TGI of `CN(C)CCNC1=CC(=O)c2nc3ccccc3c3ccnc1c23` is ___
Result :: 1.27

Query :: Endpoint output: log10 TGI of `Cc1ccc2[nH]c3c(c2c1)CCC/C3=N/N=C(N)N` . Value?
Result :: 1.00

Query :: Give its log10 TGI value. Item: `CN=C(N)/N=C(\N)Nc1cc2ccccc2c2ccccc12`
Result :: 1.57

Query :: Using the record for `C[C@]12CC[C@H]3[C@@H](CCC4=CC(=O)CC[C@@]43C)[C@@H]1CC[C@@H]2C(=O)Nc1ccc([N+](=O)[O-])c(C(F)(F)F)c1` , report its log10 TGI.
Result :: 1.59

Query :: Please give the measured log10 TGI for this molecule: `COc1ccc(-c2nc(N3CCOCC3)c3sc(CN(C)c4ncc(C(=O)NO)cn4)cc3n2)cn1`
Result :: 0.05

Query :: Field request: log10 TGI | item: `COc1cc(/C=C2\C(=O)N(c3ccccc3)c3ccccc32)cc(OC)c1OC`
Result :: 1.47

Query :: Give its log10 TGI value. Item: `O=C1c2cc([N+](=O)[O-])cc3cc([N+](=O)[O-])cc(c23)C(=O)N1CCCNCCNCCCN1C(=O)c2cc([N+](=O)[O-])cc3cc([N+](=O)[O-])cc(c23)C1=O`
Result :: 0.41

Query :: Please look up its log10 TGI: `Oc1ccc(-c2cn3cc(Cl)sc3n2)cc1`
Result :: 1.69

Query :: Requested read-out: log10 TGI. Entry: CC(=O)c1ccc(NC(=O)C(=O)C(C(=O)c2ccc(Cl)c(Cl)c2)C2OC(=O)c3ccccc32)cc1 (stereo not given)
Result :: 1.39

Query :: For the molecule shown here, `N=c1n(Cc2ccccc2)c(N)cc(=O)n1Cc1ccccc1` , give the reported log10 TGI.
Result :: 0.98

Query :: Name the recorded log10 TGI for `Cc1coc2c1C(=O)C(=O)c1c-2ccc2c1CCCC2(C)C` .
Result :: 1.05

Query :: Quick check: log10 TGI of CC1OC(n2c3ccccc3c3c4c(c5c6ccccc6[nH]c5c32)C(=O)N(CCN2CCOCC2)C4=O)CC(O)C1O (stereo not given) ?
Result :: 0.99

Query :: Value lookup for log10 TGI; key = Cc1nn(-c2ccccc2)c2nc3c(nc12)C1=NCCN1C(c1ccc(Cl)cc1)N3 (stereo not given)
Result :: 1.16

Origin of the recorded values: PubChem BioAssay (NCI)
